ASSAY: Stability of linkers L1-L4 conjugated to FGF21 (LC-MS)
Type: physicochemical
TEST_CONDITIONS: +4° C., 72 hrs
Examples of molecules with documented +(2) H2O follow.
Supply the numeric figure in %, leaving out any unit text.

Solved cases (3 shown):
molecule="L1-FGF21ΔH-A129C: Linker-1 conjugated to FGF21ΔH-A129C protein (Table 4; Table 5 row L1) (conjugate, UniProt Q9NSA1 29-209, looked up, variant H1* A129C, Linker-1 attached) Fibroblast growth factor 21: PIPDSSPLLQFGGQVRQRYLYTDDAQQTEAHLEIREDGTVGGAADQSPESLLQLKALKPGVIQILGVKTSRFLCQRPDGALYGSLHFDPEACSFRELLLEDGYNVYQSEAHGLPLHLPGNKSPHRDPCPRGPARFLPLPGLPPALPEPPGILAPQPPDVGSSDPLSMVGPSQGRSPSYAS" number=11
molecule="L2-FGF21ΔH-A129C: Linker-2 conjugated to FGF21ΔH-A129C protein (Table 4; Table 5 row L2) (conjugate, UniProt Q9NSA1 29-209, looked up, variant H1* A129C, Linker-2 attached) Fibroblast growth factor 21: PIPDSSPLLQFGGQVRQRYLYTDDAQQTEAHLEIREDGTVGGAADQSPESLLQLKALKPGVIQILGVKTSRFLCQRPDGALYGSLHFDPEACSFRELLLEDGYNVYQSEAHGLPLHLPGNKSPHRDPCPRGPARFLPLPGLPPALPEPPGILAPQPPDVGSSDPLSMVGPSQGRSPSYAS" number=8
molecule="L4-FGF21ΔH-A129C: Linker-4 conjugated to FGF21ΔH-A129C protein (Table 4; Table 5 row L4) (conjugate, UniProt Q9NSA1 29-209, looked up, variant H1* A129C, Linker-4 attached) Fibroblast growth factor 21: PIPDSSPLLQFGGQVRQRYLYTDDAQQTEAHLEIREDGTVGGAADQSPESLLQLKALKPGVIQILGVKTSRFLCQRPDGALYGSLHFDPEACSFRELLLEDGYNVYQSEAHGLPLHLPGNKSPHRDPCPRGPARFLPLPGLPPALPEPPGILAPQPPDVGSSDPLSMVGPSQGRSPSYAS" number=7

Query molecule follows.
Reported +(2) H2O, molecule L3-FGF21ΔH-A129C: Linker-3 conjugated to FGF21ΔH-A129C protein (Table 4; Table 5 row L3) (conjugate, UniProt Q9NSA1 29-209, looked up, variant H1* A129C, Linker-3 attached) Fibroblast growth factor 21: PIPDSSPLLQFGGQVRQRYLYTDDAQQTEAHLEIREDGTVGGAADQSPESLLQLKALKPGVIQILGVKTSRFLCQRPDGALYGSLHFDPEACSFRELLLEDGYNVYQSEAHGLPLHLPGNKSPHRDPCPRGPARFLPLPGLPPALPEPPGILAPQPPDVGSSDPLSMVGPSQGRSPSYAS : ____
8
